Values were extracted from the NIST ThermoML archive (doi:10.1016/j.jct.2017.08.004).

The entries below come with measured molar heat capacity at constant pressure values attached.
test: molar heat capacity at constant pressure; conditions: 320 K; 101.33 kPa; Crystal; Small sample (50 mg) DSC
± gives the expanded uncertainty stated by the source.
Put your answer as a value accompanied by its unit after it.

>  <compound>
OC[C@@H](O)C(O)[C@H](O)CO

>  <molar heat capacity at constant pressure>
219.92 ± 18 J/K/mol

$$$$

In: Form field: reported molar heat capacity at constant pressure of O[C@H]1[C@H](O)[C@@H](O)[C@H](O)[C@@H](O)[C@H]1O [cis-1,2,3,5-trans-4,6-cyclohexanehexol]
Out: 237.36 ± 33 J/K/mol

In: Form field: reported molar heat capacity at constant pressure of OC[C@@H](O)[C@@H](O)CO
Out: 178.54 ± 22 J/K/mol
